In what follows, each item is paired with its pIC50 for HIV-1 protease (Human immunodeficiency virus type 1 group M subtype B, UniProt P04585).
pIC50: −log10 of the molar value.

Worked examples, 3 molecules total:
{"columns": ["molecule", "pIC50"],
 "data": [
  ["Cc1cccc(OCC(=O)N[C@@H](Cc2ccccc2)[C@H](O)CCc2ccccc2C(=O)NC(C)(C)C)c1", "5.00 to 7.00"],
  ["CC(C)(C)NC(=O)c1ccccc1CC[C@@H](O)[C@H](Cc1ccccc1)NC(=O)COc1ccc(F)c(F)c1F", "5.00 to 7.00"],
  ["CC(C)(C)NC(=O)c1ccccc1CC[C@@H](O)[C@H](Cc1ccccc1)NC(=O)c1cc(N)ccc1Cl", "5.00 to 7.00"]
]}

Asked: Report pIC50 for Cc1cc(Br)cc(Cl)c1OCC(=O)N[C@@H](Cc1ccccc1)[C@H](O)CCc1ccccc1C(=O)NC(C)(C)C tested on HIV-1 protease (Human immunodeficiency virus type 1 group M subtype B, UniProt P04585).
Given back: 5.00 to 7.00

Asked: Reported pIC50 for HIV-1 protease (Human immunodeficiency virus type 1 group M subtype B, UniProt P04585), given CC(C)(C)NC(=O)c1ccccc1CC[C@@H](O)[C@H](Cc1ccccc1)NC(=O)c1cc(=O)c2ccccc2o1 ?
Given back: < 5.00

Asked: Any idea what pIC50 came out for CC(C)(C)NC(=O)c1ccccc1CC[C@@H](O)[C@H](Cc1ccccc1)NC(=O)c1ccc(Br)c(C(=O)O)c1 on HIV-1 protease (Human immunodeficiency virus type 1 group M subtype B, UniProt P04585)?
Given back: 5.00 to 7.00

Asked: Provide the documented pIC50 with HIV-1 protease (Human immunodeficiency virus type 1 group M subtype B, UniProt P04585) as the system for Cc1cc(Br)cc(C)c1OCC(=O)N[C@@H](Cc1ccccc1)[C@H](O)CCc1ccccc1C(=O)NC(C)(C)C
Given back: > 7.00

* * *

pIC50: −log10 of the molar value.
pIC50 data for HIV-1 protease (Human immunodeficiency virus type 1 group M subtype B) follow.

Examples with their reported pIC50 follow.
{"columns": ["compound", "reported-metric", "val"],
 "data": [
  ["CC(C)(C)NC(=O)c1ccccc1CC[C@@H](O)[C@H](Cc1ccccc1)NC(=O)c1cc(Cl)cc(Cl)c1 [Example 000967]", "pIC50", "5.00 to 7.00"],
  ["CCC(CC)OCC(=O)N[C@@H](Cc1ccccc1)[C@H](O)CCc1ccccc1C(=O)NC(C)(C)C [Example 001231]", "pIC50", "5.00 to 7.00"],
  ["Cc1cccc(C)c1OCC(=O)N[C@@H](Cc1ccccc1)[C@H](O)CCc1ccccc1C(=O)NC(C)(C)C [Example 000987]", "pIC50", "> 7.00"]
]}

Next up:
Asked: pIC50 lookup needed for CC(C)(C)NC(=O)c1ccccc1CC[C@@H](O)[C@H](Cc1ccccc1)NC(=O)c1ccccc1 [Example 000245] , thanks.
Given back: 5.00 to 7.00

* * *

pIC50: −log10 of the molar value.
Observed pIC50, system HIV-1 protease (Human immunodeficiency virus type 1 group M subtype B).

{"columns": ["compound", "reported-metric", "val"],
 "data": [
  ["CC(C)(C)NC(=O)c1ccccc1CC[C@@H](O)[C@H](Cc1ccccc1)NC(=O)COc1c(Cl)cc(Cl)cc1Cl [Example 001224]", "pIC50", "> 7.00"],
  ["CC(C)(C)NC(=O)c1ccccc1CC[C@@H](O)[C@H](Cc1ccccc1)NC(=O)N1c2ccccc2Sc2ccccc21 [Example 00241]", "pIC50", "< 5.00"],
  ["CC(Oc1ccccc1)C(=O)NC(Cc1ccccc1)C(O)CCc1ccccc1C(=O)NC(C)(C)C (stereo not drawn) [Example 000243]", "pIC50", "5.00 to 7.00"],
  ["Cc1cc(Br)c(OCC(=O)N[C@@H](Cc2ccccc2)[C@H](O)CCc2ccccc2C(=O)NC(C)(C)C)c(Br)c1 [Example 001225]", "pIC50", "5.00 to 7.00"],
  ["C[C@H](O)C(=O)N[C@@H](Cc1ccccc1)[C@H](O)CCc1ccccc1C(=O)NC(C)(C)C [Example 000242]", "pIC50", "5.00 to 7.00"]
]}

Asked: // pIC50 lookup, key: CC(C)(C)NC(=O)c1ccccc1CC[C@@H](O)[C@H](Cc1ccccc1)NC(=O)c1c(F)cccc1F [Example 000969]
Given back: 5.00 to 7.00

Asked: Sample CN(C)c1ccc(C(=O)N[C@@H](Cc2ccccc2)[C@H](O)CCc2ccccc2C(=O)NC(C)(C)C)cc1 [Example 000954] — what was its pIC50?
Given back: < 5.00

Asked: # input compound: CC(C)(C)NC(=O)c1ccccc1CC[C@@H](O)[C@H](Cc1ccccc1)NS(=O)(=O)c1ccc(Br)c(Cl)n1 [Example 000879] ; wanted: its pIC50
Given back: 5.00 to 7.00

Asked: Given the compound CC(C)(C)NC(=O)c1ccccc1CC[C@@H](O)[C@H](Cc1ccccc1)NS(=O)(=O)c1cccc2cccnc12 [Example 00878] , what is its reported pIC50?
Given back: 5.00 to 7.00

Asked: Which pIC50 is listed for CC(C)(C)NC(=O)c1ccccc1CC[C@@H](O)[C@H](Cc1ccccc1)NC(=O)c1ccc(N)cc1Cl [Example 000944] ?
Given back: < 5.00

Asked: Record request: pIC50 value, item CC(C)(C)NC(=O)c1ccccc1CC[C@@H](O)[C@H](Cc1ccccc1)NC(=O)c1ccccc1Nc1ccccc1 [Example 001020]
Given back: < 5.00
